Test system: mAb 9C12.2
Format: binding, mouse
Conditions: mAb 9C12.2; inhibitor mixed with antibody, PERI-AMA-BSA coated plate
Starred links: 1 amine or outer side, 2 acyl side, 3 side chain; linkers in the order of their positions; H or OH if unused. Positions of bridges follow the written chain, without caps; N, C: chain ends. Non-standard residues stand in square brackets, D forms with d. Residues, ends and D or L forms follow the SMILES beside them. ξ: configuration not given here. Trp(2-yl) = O=C([C@H](Cc1c([*:3])[nH]c2ccccc12)N[*:1])[*:2]; ξTrp(2-yl) = O=C(C(Cc1c([*:3])[nH]c2ccccc12)N[*:1])[*:2]; Leu(4R-OH,5-OH) = C[C@](O)(CO)C[C@H](N)C(=O)O; X1 = CC(O)(CO)CC(N[*:1])C(=O)[*:2]; cisHyp = O=C(O)[C@@H]1C[C@H](O)CN1; ξAsp(3ξ-OH) = NC(C(=O)O)C(O)C(=O)O; Hyp = O=C(O)[CH]1C[CH](O)CN1
IC50 overview

NCc1cc(=O)[nH]o1 [muscimol]; >1 µg/mL
CC[C@H](C)[C@@H]1NC(=O)CNC(=O)[C@@H]2Cc3c([nH]c4cc(O)ccc34)[S+]([O-])C[C@@H](NC(=O)CNC1=O)C(=O)N[C@@H](CC(N)=O)C(=O)N1C[C@H](O)C[C@H]1C(=O)N[C@@H]([C@@H](C)[C@@H](O)CO)C(=O)N2 (stereo in doubt) [α-amanitin]; 0.00266 ± 0.00018 µg/mL
N[C@H](C(=O)O)c1cc(=O)[nH]o1 [ibotenic acid]; >1 µg/mL
C[C@@H]1NC(=O)[C@H](C[C@@](C)(O)CO)NC(=O)[C@@H]2Cc3c([nH]c4ccccc34)SC[C@H](NC(=O)[C@@H]([C@H](C)O)NC1=O)C(=O)N1C[C@@H](O)C[C@H]1C(=O)N[C@@H](C)C(=O)N2 [phalloidin] (cyclo(A[dT]C[cisHyp]A[Trp(2-yl)][Leu(4R-OH,5-OH)]); thioether 3-6); >1 µg/mL

[ask] Consider the molecule shown here: CC1NC(=O)C2CC(O)CN2C(=O)C2CSc3[nH]c4ccccc4c3CC(NC1=O)C(=O)NC(CC(C)(O)CO)C(=O)NC(C(C)C)C(=O)NC(C(O)C(=O)O)C(=O)N2 (centres unmarked) [phallacidin] (cyclo([ξAsp(3ξ-OH)]C[Hyp]A[ξTrp(2-yl)][X1]V); thioether 2-5; configuration not given here) What is its recorded IC50?
[reply] >1 µg/mL
